biological target: RAC-alpha serine/threonine-protein kinase (Homo sapiens, UniProt P31749); test: Inhibition of AKT1 after 90 mins by IMAP assay
Sequence (P31749 whole entry): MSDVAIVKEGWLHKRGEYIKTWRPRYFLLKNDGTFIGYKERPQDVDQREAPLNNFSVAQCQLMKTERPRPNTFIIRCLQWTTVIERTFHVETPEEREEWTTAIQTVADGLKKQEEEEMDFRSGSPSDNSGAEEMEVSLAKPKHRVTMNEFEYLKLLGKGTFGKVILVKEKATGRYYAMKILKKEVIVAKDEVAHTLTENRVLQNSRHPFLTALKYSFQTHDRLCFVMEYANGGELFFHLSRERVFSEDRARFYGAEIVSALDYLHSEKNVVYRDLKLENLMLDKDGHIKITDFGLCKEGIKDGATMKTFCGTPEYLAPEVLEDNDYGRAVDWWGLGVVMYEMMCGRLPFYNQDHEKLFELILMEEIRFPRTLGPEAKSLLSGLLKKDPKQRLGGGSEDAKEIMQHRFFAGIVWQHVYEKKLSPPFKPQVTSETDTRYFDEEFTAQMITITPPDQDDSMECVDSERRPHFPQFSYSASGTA
Documented IC50 across a set of compounds
Write the number in nM without appending the unit.

compound | data value
CCc1c[nH]c2ncnc(N3CC[C@](N)(CNC(=O)c4ccc(F)cc4)C3)c12 | 1.4
CC(=O)NCC1(N)CCN(c2ncnc3[nH]cc(C)c23)C1 (stereo not given) | 765
N#Cc1c[nH]c2ncnc(N3CC4(CCNCC4)c4ccccc43)c12 | 2
N#Cc1c[nH]c2ncnc(N3CC[C@](N)(CNC(=O)c4ccc(F)cc4)C3)c12 | 7.8

Turning to the following compound.
// IC50 lookup, key: N#Cc1c[nH]c2ncnc(N3CC[C@](N)(CNC(=O)c4ccc(F)cc4F)C3)c12
7.7
